Test: AUC in duodenally dosed Sprague-Dawley rat peripheral blood at 10 mg/kg
Format: ADME, organism-based
Parameters: dose 10 mg/kg, route intraduodenal
MEASURED_METRIC: AUC (ng·h/mL)

1. C[C@]12CC[C@@H]3c4ccc(O)cc4C[C@@H](CCCCCCCCC[S+]([O-])CCCC(F)(F)C(F)(F)F)[C@H]3[C@@H]1CC[C@@H]2O (stereo partly drawn)	7
2. C[C@]1(c2ccc(O)cc2)CSc2cc(O)ccc2[C@H]1CCCCCCCCC(CCCC(F)(F)C(F)(F)F)C(=O)O (stereo partly drawn)	2040
3. C[C@]1(c2ccc(O)cc2)CSc2cc(O)ccc2[C@H]1CCCCCCCCC[S+]([O-])CCCC(F)(F)C(F)(F)F (stereo partly drawn)	13

----------
Assay: AUC in Sprague-Dawley rat at 20 mg/kg, po
Type: ADME, organism-based, Plasma
Design: dose 20 mg/kg, route oral
Conditions: Sprague-Dawley, plasma
MEASURED_METRIC: AUC (ng·h/mL)

1) C[C@]1(c2ccc(O)cc2)CSc2cc(O)ccc2[C@H]1CCCCCCCCC[S+]([O-])CCCC(F)(F)C(F)(F)F (stereo partly specified)	3590

----------
Molecular target: Estrogen receptor (Homo sapiens) (UniProt P03372)
Experiment: Displacement of [3H]estradiol from human recombinant ERalpha relative to estradiol
# note: boundary value 0.6% maps to not fulfilled; RBA below it maps to fulfilled

1) C[C@]1(c2ccc(O)cc2)CSc2cc(O)ccc2[C@H]1CCCCCCCCCCC(CCCC(F)(F)C(F)(F)F)C(=O)O (some centres not stated)	fulfilled
2) C[C@]1(c2ccc(O)cc2)CSc2cc(O)ccc2[C@H]1CCCCCCCCCNC(=O)NS(=O)(=O)CCCC(F)(F)C(F)(F)F	not fulfilled
3) C[C@]1(c2ccc(O)cc2)COc2cc(O)ccc2[C@H]1CCCCCCCCC[S+]([O-])CCCC(F)(F)C(F)(F)F (some centres not stated)	not fulfilled
4) C[C@]1(c2ccc(O)cc2)CSc2cc(O)ccc2[C@H]1CCCCCCCCC(CCCCCC(F)(F)C(F)(F)F)C(=O)O (some centres not stated)	not fulfilled
5) C[C@]1(c2ccc(O)cc2)CSc2cc(O)ccc2[C@H]1CCCCCCCCCC(CCCCC(F)(F)C(F)(F)F)C(=O)O (some centres not stated)	fulfilled
6) C[C@]1(c2ccc(O)cc2)CSc2cc(O)ccc2[C@H]1CCCCCCCCCNS(=O)(=O)CCCC(F)(F)C(F)(F)F	not fulfilled
7) C[C@]1(c2ccc(O)cc2)CSc2cc(O)ccc2[C@H]1CCCCCCCCC[S+]([O-])CCCC(F)(F)C(F)(F)F (some centres not stated)	not fulfilled
8) C[C@]1(c2ccc(O)cc2)COc2cc(O)ccc2[C@H]1CCCCCCCCCNS(=O)(=O)NCCCC(F)(F)C(F)(F)F	not fulfilled
9) C[C@]1(c2ccc(O)cc2)CSc2cc(O)ccc2[C@H]1CCCCCCCCCC(CCC(F)(F)C(F)(F)C(F)(F)C(F)(F)F)C(=O)O (some centres not stated)	fulfilled
10) COC(=O)C(CCCCCCCC[C@@H]1c2ccc(O)cc2SC[C@]1(C)c1ccc(O)cc1)CCCC(F)(F)C(F)(F)F (some centres not stated)	not fulfilled
11) C[C@]1(c2ccc(O)cc2)CSc2cc(O)ccc2[C@H]1CCCCCCCCCC(CCCC(F)(F)C(F)(F)C(F)(F)C(F)(F)F)C(=O)O (some centres not stated)	fulfilled

----------
Test system: Rattus norvegicus
Experiment: AUC in Sprague-Dawley rat at 20 mg/kg, po
Type: ADME, organism-based, Plasma
Set-up: dose 20 mg/kg, route oral
Settings: in vivo
Overview of recorded AUC for various compounds
MEASURED_METRIC: AUC (µg·h/mL)

1. C[C@]12CC[C@@H]3c4ccc(O)cc4C[C@@H](CCCCCCCCC[S+]([O-])CCCC(F)(F)C(F)(F)F)[C@H]3[C@@H]1CC[C@@H]2O (some centres not stated)	1.67
2. C[C@]1(c2ccc(O)cc2)CSc2cc(O)ccc2[C@H]1CCCCCCCCC(CCCC(F)(F)C(F)(F)F)C(=O)O (some centres not stated)	209

----------
Overview of recorded inhibition in vivo at 10 mg/kg for various compounds
Tested on: Mus musculus
Experiment: Antagonist activity assessed as inhibition of estrogen-stimulated uterine weight gain in ovariectomized mouse at 10 mg/kg, po
Assay type: functional
MEASURED_METRIC: inhibition in vivo at 10 mg/kg (%)

1. C[C@]1(c2ccc(O)cc2)CSc2cc(O)ccc2[C@H]1CCCCCCCCCCC(CCCC(F)(F)C(F)(F)F)C(=O)O (stereo partly drawn)	62
2. C[C@]1(c2ccc(O)cc2)CSc2cc(O)ccc2[C@H]1CCCCCCCCCC(CCCC(F)(F)C(F)(F)C(F)(F)C(F)(F)F)C(=O)O (stereo partly drawn)	86
3. C[C@]1(c2ccc(O)cc2)COc2cc(O)ccc2[C@H]1CCCCCCCCCNC(=O)NCCCC(F)(F)C(F)(F)F	1

----------
Tested on: Rattus norvegicus
Experiment: AUC in Sprague-Dawley rat at 10 mg/kg, iv
Assay type: ADME, organism-based, Plasma
Design: dose 10 mg/kg, route intravenous
Conditions: in vivo
MEASURED_METRIC: AUC

1) C[C@]1(c2ccc(O)cc2)CSc2cc(O)ccc2[C@H]1CCCCCCCCC[S+]([O-])CCCC(F)(F)C(F)(F)F (stereo partly drawn)	8220 ng·h/mL
2) C[C@]1(c2ccc(O)cc2)CSc2cc(O)ccc2[C@H]1CCCCCCCCC(CCCC(F)(F)C(F)(F)F)C(=O)O (stereo partly drawn)	228000 ng·h/mL
3) C[C@]12CC[C@@H]3c4ccc(O)cc4C[C@@H](CCCCCCCCC[S+]([O-])CCCC(F)(F)C(F)(F)F)[C@H]3[C@@H]1CC[C@@H]2O (stereo partly drawn) [FULVESTRANT]	5300 ng·h/mL

----------
Overview of recorded RBA for various molecules
Molecular target: Estrogen receptor (Homo sapiens) (UniProt P03372)
Sequence (whole entry): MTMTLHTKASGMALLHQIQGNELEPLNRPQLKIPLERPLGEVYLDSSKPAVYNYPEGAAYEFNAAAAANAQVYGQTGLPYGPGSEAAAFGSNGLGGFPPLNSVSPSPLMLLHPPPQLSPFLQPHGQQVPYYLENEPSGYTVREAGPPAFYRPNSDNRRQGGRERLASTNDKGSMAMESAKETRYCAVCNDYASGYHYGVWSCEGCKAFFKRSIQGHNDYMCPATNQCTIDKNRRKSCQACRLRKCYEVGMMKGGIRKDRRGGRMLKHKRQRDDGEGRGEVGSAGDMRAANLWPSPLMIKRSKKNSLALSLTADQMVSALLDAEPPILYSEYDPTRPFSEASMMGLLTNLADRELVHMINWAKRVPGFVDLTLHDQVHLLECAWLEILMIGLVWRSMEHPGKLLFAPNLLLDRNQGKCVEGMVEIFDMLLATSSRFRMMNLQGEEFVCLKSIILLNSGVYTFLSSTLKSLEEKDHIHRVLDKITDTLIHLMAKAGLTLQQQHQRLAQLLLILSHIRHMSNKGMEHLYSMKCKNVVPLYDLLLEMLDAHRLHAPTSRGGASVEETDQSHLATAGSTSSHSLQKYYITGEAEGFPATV
Experiment: Displacement of [3H]estradiol from human recombinant ERalpha relative to estradiol
MEASURED_METRIC: RBA (%)

1. C[C@]1(c2ccc(O)cc2)CSc2cc(O)ccc2[C@H]1CCCCCCCCC(CCCCC(F)(F)C(F)(F)F)C(=O)O (some centres not stated)	1.3
2. C[C@]12CC[C@@H]3c4ccc(O)cc4C[C@@H](CCCCCCCCC[S+]([O-])CCCC(F)(F)C(F)(F)F)[C@H]3[C@@H]1CC[C@@H]2O (some centres not stated)	138
3. C[C@]1(c2ccc(O)cc2)CSc2cc(O)ccc2[C@H]1CCCCCCCCC(CCCC(F)(F)C(F)(F)F)C(=O)O (some centres not stated)	0.8
4. C[C@]1(c2ccc(O)cc2)COc2cc(O)ccc2[C@H]1CCCCCCCCCNC(=O)NCCCC(F)(F)C(F)(F)F	57
5. C[C@]1(c2ccc(O)cc2)CSc2cc(O)ccc2[C@H]1CCCCCCCC(CCCC(F)(F)C(F)(F)F)C(=O)O (some centres not stated)	0.5
6. C[C@]1(c2ccc(O)cc2)CSc2cc(O)ccc2[C@H]1CCCCCCCCC(CCCC(F)(F)C(F)(F)C(F)(F)C(F)(F)F)C(=O)O (some centres not stated)	0.3
7. C[C@]1(c2ccc(O)cc2)CSc2cc(O)ccc2[C@H]1CCCCCCCCCC(CCCC(F)(F)C(F)(F)F)C(=O)O (some centres not stated)	0.9

----------
Test system: Mus musculus
Experiment: Antagonist activity assessed as inhibition of estrogen-stimulated uterine weight gain in ovariectomized mouse at 10 mg/kg, po
Format: functional
MEASURED_METRIC: inhibition in vivo at 10 mg/kg (%)

1. C[C@]1(c2ccc(O)cc2)CSc2cc(O)ccc2[C@H]1CCCCCCCCCNS(=O)(=O)CCCC(F)(F)C(F)(F)F	31
2. C[C@]1(c2ccc(O)cc2)CSc2cc(O)ccc2[C@H]1CCCCCCCCC(CCCC(F)(F)C(F)(F)F)C(=O)O (stereo not given in full)	77
3. C[C@]1(c2ccc(O)cc2)CSc2cc(O)ccc2[C@H]1CCCCCCCCC(CCCCCC(F)(F)C(F)(F)F)C(=O)O (stereo not given in full)	86
4. C[C@]1(c2ccc(O)cc2)COc2cc(O)ccc2[C@H]1CCCCCCCCC[S+]([O-])CCCC(F)(F)C(F)(F)F (stereo not given in full)	66
5. C[C@]1(c2ccc(O)cc2)CSc2cc(O)ccc2[C@H]1CCCCCCCCC(CCC(F)(F)C(F)(F)C(F)(F)C(F)(F)F)C(=O)O (stereo not given in full)	93
6. C[C@]1(c2ccc(O)cc2)CSc2cc(O)ccc2[C@H]1CCCCCCCCCC(CCCCC(F)(F)C(F)(F)F)C(=O)O (stereo not given in full)	79
7. C[C@]1(c2ccc(O)cc2)CSc2cc(O)ccc2[C@H]1CCCCCCCC(CCCC(F)(F)C(F)(F)F)C(=O)O (stereo not given in full)	20
8. C[C@]1(c2ccc(O)cc2)COc2cc(O)ccc2[C@H]1CCCCCCCCCNS(=O)(=O)NCCCC(F)(F)C(F)(F)F	41
9. C[C@]1(c2ccc(O)cc2)CSc2cc(O)ccc2[C@H]1CCCCCCCCCC(CCC(F)(F)C(F)(F)C(F)(F)C(F)(F)F)C(=O)O (stereo not given in full)	85
10. C[C@]1(c2ccc(O)cc2)CSc2cc(O)ccc2[C@H]1CCCCCCCCC(CCCC(F)(F)C(F)(F)C(F)(F)C(F)(F)F)C(=O)O (stereo not given in full)	93
11. C[C@]12CC[C@@H]3c4ccc(O)cc4C[C@@H](CCCCCCCCC[S+]([O-])CCCC(F)(F)C(F)(F)F)[C@H]3[C@@H]1CC[C@@H]2O (stereo not given in full)	54
12. C[C@]1(c2ccc(O)cc2)CSc2cc(O)ccc2[C@H]1CCCCCCCCCC(CCCC(F)(F)C(F)(F)F)C(=O)O (stereo not given in full)	81
13. C[C@]1(c2ccc(O)cc2)CSc2cc(O)ccc2[C@H]1CCCCCCCCC(CCCCC(F)(F)C(F)(F)F)C(=O)O (stereo not given in full)	87
14. C[C@]1(c2ccc(O)cc2)CSc2cc(O)ccc2[C@H]1CCCCCCCCC[S+]([O-])CCCC(F)(F)C(F)(F)F (stereo not given in full)	51
15. COC(=O)C(CCCCCCCC[C@@H]1c2ccc(O)cc2SC[C@]1(C)c1ccc(O)cc1)CCCC(F)(F)C(F)(F)F (stereo not given in full)	40
